Let's go through some recorded pEC50 values for Peroxisome proliferator-activated receptor gamma (Mus musculus) together.
pEC50: −log10 of the molar value.
reported endpoint: pEC50

Known pEC50 results, listed for orientation:
compound | pEC50
CN(CCCOc1ccc(CC2SC(=O)NC2=O)cc1)c1nc2ccccc2o1 (stereo not drawn) | 6.00
CC(C)(Oc1ccc(Cl)cc1)C(=O)O | 3.22
CN(CCOc1ccc(/C=C2\SC(=O)NC2=O)cc1)c1ccccn1 | 6.72
CN(CCOc1ccc(C2SC(=O)NC2=O)cc1)c1nc2ccccc2o1 (stereo not drawn) | 5.00
O=C(O)CCC(=O)c1ccc(Oc2ccc(Cl)cc2)cc1 | 3.96

a. O=C1NC(=O)C(Cc2ccc3c(c2)CC[C@H](Cc2ccccc2)O3)S1 (stereo partly drawn)
b. CC1(COc2ccc(CC3SC(=O)NC3=O)cc2)CCCCC1 (stereo not drawn)
stdin: Problem: Given the entries a and b , determine which has the lower reported pEC50. To answer, give the label that identifies your chosen option.
stdout: a

----------
system under test: Peroxisome proliferator-activated receptor delta (Mus musculus, UniProt P35396)
Sequence (P35396 whole entry): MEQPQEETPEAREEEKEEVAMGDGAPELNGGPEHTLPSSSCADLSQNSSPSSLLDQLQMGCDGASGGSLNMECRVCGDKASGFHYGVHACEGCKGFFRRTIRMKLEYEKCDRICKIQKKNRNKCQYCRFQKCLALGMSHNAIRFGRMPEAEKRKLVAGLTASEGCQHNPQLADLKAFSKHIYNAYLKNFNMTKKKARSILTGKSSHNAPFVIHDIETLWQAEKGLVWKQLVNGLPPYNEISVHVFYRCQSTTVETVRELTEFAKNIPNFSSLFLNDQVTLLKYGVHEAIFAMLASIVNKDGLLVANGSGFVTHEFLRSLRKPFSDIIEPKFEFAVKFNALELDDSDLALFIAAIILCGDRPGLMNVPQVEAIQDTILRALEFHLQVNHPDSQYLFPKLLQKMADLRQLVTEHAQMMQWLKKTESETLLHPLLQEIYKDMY
recorded conditions: cv-1
reported endpoint: EC50

compound | reported endpoint | measured result
CN(CCOc1ccc(/C=C2\SC(=O)NC2=O)cc1)c1ccccn1 | EC50 | Not Active
CCc1ccc(CCOc2ccc(CC3SC(=O)NC3=O)cc2)nc1 (stereo not given) | EC50 | Not Active
CC(C)(Oc1ccc(Cl)cc1)C(=O)O | EC50 | Not Active
CN(CCCOc1ccc(CC2SC(=O)NC2=O)cc1)c1nc2ccccc2o1 (stereo not given) | EC50 | Not Active

EC50 reading for CN(CCOc1ccc(CC2SC(=O)NC2=O)cc1)c1nc2ccccc2o1 (stereo not given) : Not Active

The compound identified as CC1(COc2ccc(CC3SC(=O)NC3=O)cc2)CCCCC1 (stereo not given) registered its EC50 at Not Active

----------
system under test: Peroxisome proliferator-activated receptor alpha (Mus musculus)
Sequence (P23204 whole entry): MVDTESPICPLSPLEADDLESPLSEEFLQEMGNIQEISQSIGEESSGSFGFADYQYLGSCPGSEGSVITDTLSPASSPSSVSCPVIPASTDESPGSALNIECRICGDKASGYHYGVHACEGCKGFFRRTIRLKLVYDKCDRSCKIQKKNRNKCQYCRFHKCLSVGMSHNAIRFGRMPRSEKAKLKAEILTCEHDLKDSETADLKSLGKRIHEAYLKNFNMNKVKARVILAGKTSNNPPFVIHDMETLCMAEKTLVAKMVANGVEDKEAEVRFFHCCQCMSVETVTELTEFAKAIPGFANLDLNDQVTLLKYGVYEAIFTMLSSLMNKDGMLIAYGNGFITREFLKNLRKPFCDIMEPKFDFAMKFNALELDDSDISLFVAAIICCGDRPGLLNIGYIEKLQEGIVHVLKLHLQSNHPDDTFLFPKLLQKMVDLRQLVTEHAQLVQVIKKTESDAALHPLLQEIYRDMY
measurement description: In vitro transcriptional activation of peroxisome proliferator activated alpha-receptor (PPAR) expressed in CV-1 cells
Type: functional, cell-based
reported endpoint: EC50 (µM)

I. O=C(O)CCC(=O)c1ccc(Oc2ccc(Cl)cc2)cc1
II. CC(C)(Oc1ccc(Cl)cc1)C(=O)O [CLOFIBRIC ACID]
stdin: Which one would you say has the larger EC50 value: I , or II ? Record your answer as the label of the chosen record.
stdout: I
